- Method summary: PET hydrolysis, aromatic products released after 48 h (umol product/mg enzyme); higher = more PET depolymerization activity
- Measurement parameters: substrate: cryPow; 60 °C; pH 5.5
Reported PET hydrolysis values for a set of sequences

Solved cases below.
# PET hydrolysis (sequence: NPYERGPAPTTSSIEASRGSFATSTTTVSRLAVSGFGGGTIYYPTSTASGTFGAVSIAPGFTATQSSMAWLGPRLASQGFVVFTIDTITTSDQPDSRGRQLLSSLDYLTQQSSVRSRIDSSRLGVVGHSMGGGGTLEAARSRPSLQAAVPLTGWNLTKSWSTVRVPTLVVGAQADTVAPVASHSIPFYTSLPSSLDKAYLELRGASHFAPNSANTTIAKYTLSWLKRFIDDDTRYEQFLCPIPGTSTTISDYRGNCPHAG [ESM140] ) is 4

# PET hydrolysis (sequence: LTPSPTPPPTGGTGGCPADAICRGETPGSYSANGPYGSRSYTLSRIQTPGGATVYYPANAEPPFSGLVFTPPYTGSQFMYRAWGPFFASHGIVMVTMDTRTTLDSVDQRAAQQKQVLDALKAENTRSASPLRGKLDTSRLGAVGWSMGGGATWINSAEYSGLKTAMSLAGHNLSALDINARGSNTRVPTLIMNGALDATYLGGLGQSLGVYNNIPRGIPKVIYEVSSAGHFSWGSPTSAGRSVAQIALAFQKTFLDGDTRWATYIRRPSSGVATWRTANLP [ESM175] ) is < 3

# PET hydrolysis (sequence: ANPYERGPAPTKASIEATTGYFATAKVTVAKSSVSGFGGGTIYYPTSTTSGTFGAIALVPGFTNVQSAVAWLGPRVASQGFVVFIIDTNSVYDSPDSRGTQLLAALDYLTNTSTVKSRVDATRLGVMGYSMGGGGALSATKTRTSIKASVPMAPYHSTKTWTTVKTPTLIVTGQSDTTAPPASHGLAFYNSLSTSIDKAYMELKGAGHSAPTSANTTIAKYSISWFKRFIDDDTRYDQFLCPNPTDTTISSYKSTCNYS [DP082] ) is < 3

# PET hydrolysis (sequence: DEIGQAPTAGNITGNGSFTTTSESISSLVSGFGGGRVYYPTTAGKYPVVAISPGFTATWSSLSWIGPRLSSWGFVVVGIETNSIYDQPASRGSQLLAALNWAVNSSSSAVRARVDGSRRGVAGHSMGGGGTLEALAADTTGLVKAGVPIAPWNSDKTWNNVSEPVMIVGGQSDTVAPVASHSIPFYNTLAGPKGYVELTGASHFFPQSTNATLSRALVAWFKRWLNQDSRFTPYTCGFSGLAVSDFRSNAC [ESM090] ) is 12

# PET hydrolysis (sequence: DQGPPPTIASLSVDGAYAVMTYTDIPDVPEFGDATVYYPVDTAMPIGGVAISPGWTELQRHIEWWGPRLASHGYAVLILDTNDAMADQPEQRAEALIAAVRILRGENDRAGSPLSGRIDTEKMAIMGHSMGGGGVLIAANNYPAEIQAAIPFTPWQPAGDFSQVVAPTLVMAGSADRVASVSDHAWPHYQSIPESTIKVFLEIDGGSHFIADTSRGEDLGTIGRYGIAWLKLYLDGDERYRGFIYGDEAASDSEKFSRYVTSP [TEP021] ) is < 3

Now, please, on to the next sequence.
# PET hydrolysis (sequence: ADNPYQRGPDPTRASVAAVNGPFVNTSVSVPTGYGFNGGRIYYPTDTSQGTFGAIAISPGYTALFSAELAWMGPWLASHGFVVIGIETNSRNDFDTARGTQLLAALDYLTQQSPVRDRVDPNRLAVSGHSMGGGGALSAAIRRSSLKAAVGITPYSPSQNLANDRVPTMVISGQADTVVTPSYALGLYNSLPASTESVYLEVAGGDHGFMVGRSNPVLIRTMLPFLKMFVDNDSRYSQFLCPLLDSSGVVTYRSTCPLLPTNPTTPPPTGTPTPTPTSTPTPTPTPTTPPPSGSANE [ESM091] ) is < 3

Values from the supplement of paper PMC12455559
